- target_of_assay: substance P receptor (Homo sapiens)
- Construct: The receptor was prepared from human lymphoblast cells (IM-9); endogenous in cells; host or cells: IM-9 human lymphoblast cells (membrane preparation)
- Sequence (P25103 whole entry): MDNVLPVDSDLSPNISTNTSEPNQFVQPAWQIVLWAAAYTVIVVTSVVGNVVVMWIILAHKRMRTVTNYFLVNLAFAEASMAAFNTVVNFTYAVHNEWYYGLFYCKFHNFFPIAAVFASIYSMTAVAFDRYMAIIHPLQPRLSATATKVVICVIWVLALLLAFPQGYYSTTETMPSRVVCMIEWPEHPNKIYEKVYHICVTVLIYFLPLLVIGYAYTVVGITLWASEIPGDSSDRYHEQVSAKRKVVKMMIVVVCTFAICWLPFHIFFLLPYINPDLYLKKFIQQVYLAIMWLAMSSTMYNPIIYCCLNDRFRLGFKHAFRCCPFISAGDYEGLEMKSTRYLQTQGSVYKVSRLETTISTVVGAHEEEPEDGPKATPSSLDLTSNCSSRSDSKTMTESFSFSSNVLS
- assay_details: Radioligand receptor binding inhibitory activity using receptor from human lymphoblast cells (IM-9)
- protocol_conditions: 125I-BHSP radioligand, receptor from IM-9 cells, 25° C. for 30 minutes
pIC50: −log10 of the molar value.
endpoint: pIC50

Check out these entries, answers already filled in.
[[record]]
compound = "CN(C)Cc1cc(-c2ccccc2)c2c(n1)OCCN(Cc1cc(C(F)(F)F)cc(C(F)(F)F)c1)C2=O [Reference Example 99]"
endpoint = "pIC50"
quantitative_result = 9.92

[[record]]
compound = "C[C@@H]1CCn2c(c(-c3ccccc3)c3cccnc3c2=O)C(=O)N(Cc2cc(C(F)(F)F)cc(C(F)(F)F)c2)C1 [Reference Example 71]"
endpoint = "pIC50"
quantitative_result = 9.64

[[record]]
compound = "O=C1c2c(-c3ccccc3)cc(CCl)nc2OCCN1Cc1cc(C(F)(F)F)cc(C(F)(F)F)c1 [Reference Example 93]"
endpoint = "pIC50"
quantitative_result = 9.38

[[record]]
compound = "COc1cc(CN2C[C@H](C)CCn3c(c(-c4ccc(F)cc4)c4cccnc4c3=O)C2=O)cc(OC)c1"
endpoint = "pIC50"
quantitative_result = 8.82


a: COc1cc(CN2C[C@H](C)CCn3c(c(-c4ccc(Cl)c(Cl)c4)c4cccnc4c3=O)C2=O)cc(OC)c1
b: Cc1ccc(-c2c3n(c(=O)c4ncccc24)CC[C@@H](C)CN(Cc2cc(OC(C)C)cc(OC(C)C)c2)C3=O)cc1
For the pair a and b , which entry has the numerically smaller recorded pIC50? Return value: the label identifying the chosen record.
b
(b: 9.77, a: 10.30)

* * *

Recorded melting point for the following compounds

Some compounds with recorded melting point:
[[record]]
compound = "CC1CCn2c(c(-c3ccccc3)c3cccnc3c2=O)C(=O)N(Cc2cc(C(F)(F)F)cc(C(F)(F)F)c2)C1 (racemic) [Reference Example 69]"
endpoint = "melting point"
result = "257 to 258 °C"

[[record]]
compound = "C[C@@H]1CCn2c(c(-c3ccccc3)c3cccnc3c2=O)C(=O)N(Cc2cc(C(F)(F)F)cc(C(F)(F)F)c2)C1 [Reference Example 71]"
endpoint = "melting point"
result = "245 to 247 °C"

[[record]]
compound = "CN(C)Cc1cc(-c2ccccc2)c2c(n1)OCCN(Cc1cc(C(F)(F)F)cc(C(F)(F)F)c1)C2=O [Reference Example 99]"
endpoint = "melting point"
result = "186 to 188 °C"

[[record]]
compound = "Cc1cnc2c(c1-c1ccccc1)C(=O)N(Cc1cc(C(F)(F)F)cc(C(F)(F)F)c1)C[C@H](C)CO2 [Reference Example 85]"
endpoint = "melting point"
result = "147 to 148 °C"

[[record]]
compound = "C[C@@H]1COc2nccc(-c3ccccc3)c2C(=O)N(Cc2cc(C(F)(F)F)cc(C(F)(F)F)c2)C1 [Reference Example 125]"
endpoint = "melting point"
result = "142 to 143 °C"


Moving on to the next compound.
Value lookup for melting point; key = C[C@@H]1COc2nccc(-c3ccccc3)c2C(=O)N(Cc2ccccc2)C1 [Reference Example 123]
139 to 141 °C

* * *

- target_of_assay: substance P receptor (Homo sapiens)
- Construct: The receptor was prepared from human lymphoblast cells (IM-9); endogenous in cells; host or cells: IM-9 human lymphoblast cells (membrane preparation)
- assay_details: Radioligand receptor binding inhibitory activity using receptor from human lymphoblast cells (IM-9)
- protocol_conditions: 125I-BHSP radioligand, receptor from IM-9 cells, 25° C. for 30 minutes
endpoint: IC50 (nM)

[[record]]
molecule = "Cc1ccc(-c2c3n(c(=O)c4ncccc24)CC[C@@H](C)CN(Cc2cc(Cl)cc(Cl)c2)C3=O)cc1 [Example 10]"
unit_symbol = "nM"
quantitative_result = 1

[[record]]
molecule = "Cc1cnc2c(c1-c1ccccc1)C(=O)N(Cc1cc(C(F)(F)F)cc(C(F)(F)F)c1)CCCO2 [Reference Example 78]"
unit_symbol = "nM"
quantitative_result = 1.6


A: Cc1ccc(-c2c3n(c(=O)c4ncccc24)CCCN(Cc2cc(C(F)(F)F)cc(C(F)(F)F)c2)C3=O)cc1 [Reference Example 56]
B: Cc1ccc(-c2c3n(c(=O)c4ncccc24)CC[C@@H](C)CN(Cc2cc(C)cc(C)c2)C3=O)cc1 [Example 9]
Between A and B , which one shows the larger IC50 value? State the label of the item chosen.
B
(B: 0.86 nM, A: 0.28 nM)

A: C[C@H]1CN(Cc2cc(C(F)(F)F)cc(C(F)(F)F)c2)C(=O)c2c(-c3ccccc3)c3cccnc3c(=O)n2C1 [Reference Example 67]
B: Cc1cc(C)cc(CN2C[C@H](C)CCn3c(c(-c4ccc(Cl)c(Cl)c4)c4cccnc4c3=O)C2=O)c1 [Example 11]
Return label of the item with the larger IC50. Candidates: A , B . Returns: label corresponding to the selected item.
B
(B: 0.81 nM, A: 0.17 nM)

I: CC1CCn2c(c(-c3ccccc3)c3cccnc3c2=O)C(=O)N(Cc2cc(C(F)(F)F)cc(C(F)(F)F)c2)C1 (racemic) [Reference Example 69]
II: Cc1ccc(-c2c3n(c(=O)c4ncccc24)CC(O)CN(Cc2cc(C(F)(F)F)cc(C(F)(F)F)c2)C3=O)cc1 (racemic) [Reference Example 79]
Hi, I'm comparing two records. Which one has the lower IC50, I or II ? Reply briefly: the label of your chosen item.
II

a: Cc1ccc(-c2c3n(c(=O)c4ncccc24)CCCCN(Cc2cc(C(F)(F)F)cc(C(F)(F)F)c2)C3=O)cc1 [Reference Example 57]
b: C[C@@H]1CCn2c(c(-c3ccc(Cl)cc3)c3cccnc3c2=O)C(=O)N(Cc2cc(C(F)(F)F)cc(C(F)(F)F)c2)C1 [Example 6]
// which entry reports the smaller IC50, a or b ? Identify your pick by its label.
b
